FYI, the data here is from patent US9090593B2.

experimental.target: Pim-2 stably transfected into the U2OS human osteogenic sarcoma line (Homo sapiens)
Construct: expressed in transfected cells; host or cells: U2OS human osteogenic sarcoma line
Sequence (Q9P1W9 whole entry): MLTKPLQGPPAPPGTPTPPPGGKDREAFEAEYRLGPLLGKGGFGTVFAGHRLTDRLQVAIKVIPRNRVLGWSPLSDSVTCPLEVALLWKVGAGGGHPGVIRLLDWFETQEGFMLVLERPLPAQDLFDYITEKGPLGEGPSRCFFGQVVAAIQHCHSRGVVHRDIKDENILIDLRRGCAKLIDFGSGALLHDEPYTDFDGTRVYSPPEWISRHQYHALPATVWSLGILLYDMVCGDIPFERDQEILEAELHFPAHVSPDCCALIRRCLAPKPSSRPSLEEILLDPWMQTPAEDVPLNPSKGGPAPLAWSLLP
assay.text: Pim cell assay, phospho-BAD normalized against total BAD, U2OS stably transfected with Pim-2; also: high dose 31.6 µM
Format: cell-based
experimental.context: U2OS cells stably transfected with Pim-2, phospho-BAD; high dose […]; read-out: Pim2_Cell_IC50
For each record, write down the corresponding IC50.
One number for each entry, in µM.

>  <molecule>
COc1cncc(-c2ccc3[nH]nc(-c4cncc(N5CCC(N)CC5)n4)c3c2)c1

>  <val>
3.89

$$$$
>  <molecule>
Fc1cccc(F)c1-c1ccc2[nH]nc(-c3ccnc(O[C@@H]4CCCNC4)n3)c2c1

>  <val>
18.8

$$$$
>  <molecule>
C[C@H]1CCNC[C@@H]1Oc1cncc(-c2n[nH]c3ccc(-c4c(F)cccc4F)cc23)n1 [Example 198]

>  <val>
5.09

$$$$
>  <molecule>
NC1CCN(c2cncc(-c3n[nH]c4ccc(-c5ccc6scnc6c5)cc34)n2)CC1

>  <val>
9.93

$$$$
>  <molecule>
NC1CCN(c2cncc(-c3n[nH]c4ccc(-c5cccc(O)c5)cc34)n2)CC1

>  <val>
7.97

$$$$

Quick one: give me IC50 for each item below, same order please.
1. c1cc2c(cc1-c1ccc3[nH]nc(-c4cncc(O[C@@H]5CCCNC5)n4)c3c1)OCCO2
2. NC1CCN(c2cncc(-c3n[nH]c4ccc(-c5ccc6ncsc6c5)cc34)n2)CC1

Reply |
7.78
9.5

Quick one: give me IC50 for each item below, same order please.
1. Fc1cccc(F)c1-c1ccc2[nH]cc(-c3cncc(O[C@@H]4CCCNC4)n3)c2c1
2. NC1CCN(c2cncc(-c3n[nH]c4ccc(-c5ccncc5)cc34)n2)CC1
3. Fc1ccccc1-c1ccc2[nH]nc(-c3cncc(O[C@@H]4CCCNC4)n3)c2c1
4. Fc1cccc(F)c1-c1ccc2[nH]nc(-c3cncc(OC4CCNC4)n3)c2c1 (centres unmarked)
5. NC1CCN(c2cncc(-c3n[nH]c4ccc(-c5cc(C(=O)NC6CC6)ccc5F)cc34)n2)CC1
6. Fc1cccc(F)c1-c1ccc2[nH]cc(-c3cncc(N[C@@H]4CCCNC4)n3)c2c1
7. c1cc2cc(-c3ccc4[nH]nc(-c5cncc(O[C@@H]6CCCNC6)n5)c4c3)cnc2[nH]1
8. NC1CCN(c2cncc(-c3n[nH]c4ccc(-c5cncc(F)c5)cc34)n2)CC1

Reply |
5.04
5
7.84
24.2
7.39
3.03
3.01
7.02
